Experiment summary: Plasma pharmacokinetics, LC-MS/MS, non-compartmental analysis
Type: in vivo, human
Particulars: human, plasma, oral, Median AUC, patients with a grade 3 or 4 toxicity during cycle 1 and 2; p=0.036
Measured endpoint: AUC (µM·h)

- Compound: "CC(C)[C@H](C(=O)Nc1ccc(C(=O)NO)cc1)c1ccccc1"
  Value: 16.4

* * *

Experiment summary: Plasma pharmacokinetics, LC-MS/MS, non-compartmental analysis
Type: in vivo, human
Particulars: human, plasma, oral, Median Cmax, patients with a grade 3 or 4 toxicity during cycle 1 and 2; p=0.0016
Measured endpoint: Cmax (nM)

- Compound: "CC(C)[C@H](C(=O)Nc1ccc(C(=O)NO)cc1)c1ccccc1"
  Measured endpoint: "Cmax"
  Result unit: "nM"
  Value: 1540

* * *

Experiment summary: Plasma pharmacokinetics, LC-MS/MS, non-compartmental analysis
Format: in vivo, human
Particulars: human, plasma, oral, Median Cmax, patients without grade 3 or 4 toxicity

- Compound: "CC(C)[C@H](C(=O)Nc1ccc(C(=O)NO)cc1)c1ccccc1"
  Cmax: "1040 nM"
